Recorded values, source ChEMBL document CHEMBL1857833.

# MEASUREMENT_NOTES: DNDI: Cytotoxicity against L929 mouse fibroblasts, 72 hour.
# Type: toxicity, cell-based
# STATED_CONDITIONS: mouse, L929 mouse fibroblasts
Here the recorded IC50 at 72 h is given for each entry.

1. CCCCCOc1ccc(-c2nc(CNC[C@@H]3CC[C@H]4C[C@@H]3C4(C)C)co2)cc1 ... < 3.13 µg/mL
2. N#Cc1nc(-c2ccccc2)oc1N ... > 10 µg/mL
3. Cc1oc(-c2ccccc2F)nc1CNCCC1CCCN1C (stereo unspecified) ... > 10 µg/mL
4. CCCCCC(C)NCc1nc(-c2ccc(C)cc2)oc1C (stereo unspecified) ... > 10 µg/mL
5. O/N=C1\COc2ccccc21 ... > 10 µg/mL

Which IC50 at 72 h is listed for `C[C@@H]1[C@H]2C[C@@H](C[C@H]1NCc1coc(-c3sccc3Cl)n1)C2(C)C` ?
> 50 µg/mL

----------
# MEASUREMENT_NOTES: DNDI: Cytotoxicity against L929 mouse fibroblasts, CYTO-SP, 24 hour
# Assay type: toxicity, cell-based
# STATED_CONDITIONS: mouse, L929 mouse fibroblasts
Measured IC50 at 24 h, listed per entry for reference.

Take a look at these entries with their results.
1) COC/C(=N/O)c1ccc(OC)cc1 ... > 50 µg/mL
2) CCCCCC(C)NCc1coc(-c2ccccc2OCC)n1 (stereo unspecified) ... 27 µg/mL
3) C[C@@H]1[C@H]2C[C@@H](C[C@H]1NCc1coc(-c3ccc(-c4ccccc4)cc3)n1)C2(C)C ... 8.15 µg/mL
4) COc1ccc(/C(=N/O)N(C(=O)C(C)C)C(=O)C(C)C)cc1 ... > 50 µg/mL
5) CC(C)c1ccc(Oc2ncccc2/C(=N/O)NCc2cccs2)cc1 ... > 50 µg/mL
6) CCCCCC(C)NCc1coc(-c2cccc(OC)c2)n1 (stereo unspecified) ... 18 µg/mL

For the compound `CCC(CC)N/C(=N\O)c1ccc(C)nc1Oc1ccc(C)cc1OC` , what IC50 at 24 h is on record?
> 50 µg/mL

Again, but for `COc1ccc(N/C(=N/O)c2ccccc2-c2ccccc2)cc1`
> 50 µg/mL

Next record, please: `N/C(=N/O)c1cccnc1Oc1ccc2ccccc2c1`
> 50 µg/mL

Ok, now `O/N=C(/NC1CCCCC1)c1ccc2ccccc2c1`
21.1 µg/mL

Next compound up: `CCc1ccccc1Oc1ncccc1/C(=N\O)NC1CCCCC1`
> 50 µg/mL

Follow-up entry: CCCCCC(C)NCc1ccccc1-c1ccccc1 (stereo unspecified)
> 50 µg/mL

Field entry: `CCc1ccc(Oc2ncccc2/C(=N/O)NCc2ccccc2OC)cc1`
> 50 µg/mL

Also `CCCCCOc1ccc(-c2nc(CNC3CCCCCC3)co2)cc1` ?
29.5 µg/mL

Another: `COc1ccc(Oc2ncccc2/C(=N/O)NCC2CC2)cc1`
> 50 µg/mL

// repeat for CC1CC(NCc2coc(-c3ccc(C(C)(C)C)cc3)n2)CC(C)(C)C1 (stereo unspecified) and report
> 50 µg/mL

Queued: `CCCNC/C(=N\O)c1ccc(OC)cc1`
> 50 µg/mL

Now give it for CCOc1ccc(-c2nc(CNC3C[C@@H]4C[C@H]([C@@H]3C)C4(C)C)co2)cc1 (stereo partly specified) too.
> 50 µg/mL

Please do the same for `N=C(NC1CCCCC1)c1ccccc1-c1ccccc1` as well.
> 50 µg/mL

----------
# MEASUREMENT_NOTES: DNDI: half life in mouse liver microsomes at a concentration of 10uM
# Format: ADME, Microsome
Short version: half-life at 10 µM at least 80 min is Met, less is Not met.

Worked examples follow.
1. CCCCCC(C)NCc1coc(-c2ccc(CCCC)cc2)n1 (stereo not given) ... Met
2. CCc1ccccc1Oc1ncccc1/C(=N\O)NC1CCCCC1 ... Not met
3. O/N=C(\NC1CCCCC1)c1ccccc1 ... Not met

With those in mind, consider the next compound.
Given the entry `O/N=C(/NC1CCCCC1)c1cccnc1Oc1ccccc1` , answer whether its half-life at 10 µM meets or surpasses 80 min.
Not met

----------
# MEASUREMENT_NOTES: DNDI: Lipophilicity measured in Chromatographic hydrophobicity index (CHI) assay, pH 7.4
# Assay type: physicochemical
# STATED_CONDITIONS: buffer
ASSAY_READOUT: chromatographic logD

Quick one: chromatographic logD of `Fc1ccc(-c2cc3nc(-c4ccccc4)cc(N4CCNCC4)n3n2)cc1` ?
4.98

----------
# MEASUREMENT_NOTES: DNDI: Cytotoxicity against L929 mouse fibroblasts, 72 hour.
# Assay type: toxicity, cell-based
# STATED_CONDITIONS: mouse, L929 mouse fibroblasts
ASSAY_READOUT: IC50 at 72 h

1. CCCCc1ccc(-c2nc(CN)co2)cc1 ... > 10 µg/mL
2. Cc1ccc(/C(=N/O)NC2CCCCC2)c(Oc2cc(Cl)ccc2Cl)n1 ... > 10 µg/mL
3. CC(C)c1ccc(-c2nc(CNCCCN(C)C)co2)cc1 ... > 10 µg/mL

Switching to the query record.
For `CCCCc1ccc(-c2nc(-c3ccc4ccccc4c3)co2)cc1` , what is its reported IC50 at 72 h?
> 10 µg/mL

----------
# System: Leishmania donovani
# MEASUREMENT_NOTES: DNDI: Inhibition of formation of Leishmania donovani (strain MHOM/ET/67/L82) axenic amastigotes, in vitro.
# Type: functional, organism-based
Documented IC50 across a set of molecules

1) CCCCCC(C)NCc1coc(-c2ccc(Cl)c(Cl)c2)n1 (centres undefined) ... 16 µg/mL
2) O/N=C(\NC1CCCC1)c1ccccc1-c1ccccc1 ... 53.1 µg/mL
3) O/N=C(\NC1CCCCC1)c1ccccc1-c1ccccc1 ... 27.6 µg/mL
4) CCc1cccc(N/C(=N/O)c2ccccc2-c2ccccc2)c1 ... 4.96 µg/mL
5) CCCCCC(C)NCc1coc(-c2ccc(OCC)cc2)n1 (centres undefined) ... 12.3 µg/mL

I'd like to know its IC50. The molecule in question is CCCCc1ccc(-c2nc(CNC3CC(C)CC(C)(C)C3)co2)cc1 (centres undefined)
5.26 µg/mL

What about this molecule? `O/N=C(\NC1CCCCC1)c1ccccc1Oc1ccccc1`
73.4 µg/mL

Same thing, different molecule: `CCc1cccc(N/C(=N/O)c2ccc(OC)cc2)c1`
26.6 µg/mL

Check `COc1cc(C)ccc1Oc1ncccc1/C(=N/O)NC1CCCCC1` too.
> 90 µg/mL

----------
microsomal CLint at 10 µM overview
# MEASUREMENT_NOTES: DNDI: in vitro intrinsic clearance in mouse liver microsomes at a concentration of 10uM
# Assay type: ADME, Microsome
# STATED_CONDITIONS: read-out: CLint in vitro
Express the reported value numerically, then name its unit.

// query microsomal CLint at 10 µM value for entry `O/N=C(\NC1CCCCC1)c1ccccc1-c1ccccc1`
51 µL/min/mg

Entry `O/N=C(\NC1CCCCC1)c1ccccc1Oc1ccccc1` please
767 µL/min/mg

And then CCCCCC(C)NCc1coc(-c2cccc(OC)c2)n1 (stereo not drawn) , what is it?
53 µL/min/mg

----------
# MEASUREMENT_NOTES: DNDI: Cytotoxicity against L929 mouse fibroblasts, 72 hour.
# Assay type: toxicity, cell-based
# STATED_CONDITIONS: mouse, L929 mouse fibroblasts
# reported IC50 at 72 h; entries follow

State the recorded IC50 at 72 h for this entry: CCC(C)C(NCc1ccc(C)cc1)c1nc(Cc2ccccc2)c(N2CCCCC2)o1 (stereo unspecified)
> 10 µg/mL

Also, `O=C(O)c1coc(-c2ccccc2)n1` please.
> 50 µg/mL

Try this compound too: `Cc1ccc(/C(=N/O)Nc2cccc(F)c2)c(Oc2c(F)cccc2F)n1`
> 10 µg/mL

----------
Entries annotated with measured IC50 at 72 h
# MEASUREMENT_NOTES: DNDI: Cytotoxicity against L929 mouse fibroblasts, 72 hour.
# Assay type: toxicity, cell-based
# STATED_CONDITIONS: mouse, L929 mouse fibroblasts
The reply should be a number in µg/mL, with the unit left off.

1. CCCCCC(C)NCc1coc(-c2ccc(OC3CCC3)cc2)n1 (stereo not given) ... 2.36
2. CCCCCCNCc1coc(-c2ccc(CCCC)cc2)n1 ... 1.15
3. CCCCc1ccc(-c2nc(CNCC(C)(C)CN)co2)cc1 ... 1.81
4. CCCCCC(C)NCc1coc(-c2ccc(OCC(C)(C)C)cc2)n1 (stereo not given) ... 0.65
5. CCCCc1ccc(-c2nc(CNC(C)C)co2)cc1 ... 5.7

Okay, next one:
Given the entry `Clc1ccc(-c2nc(CN3CCCCC3)co2)cc1` , report its measured IC50 at 72 h.
34.4
